src = ChEMBL document CHEMBL1201862

# reported IC50; entries follow
Molecular target: Fatty acid synthase (Homo sapiens, UniProt P49327)
Sequence (P49327 whole entry): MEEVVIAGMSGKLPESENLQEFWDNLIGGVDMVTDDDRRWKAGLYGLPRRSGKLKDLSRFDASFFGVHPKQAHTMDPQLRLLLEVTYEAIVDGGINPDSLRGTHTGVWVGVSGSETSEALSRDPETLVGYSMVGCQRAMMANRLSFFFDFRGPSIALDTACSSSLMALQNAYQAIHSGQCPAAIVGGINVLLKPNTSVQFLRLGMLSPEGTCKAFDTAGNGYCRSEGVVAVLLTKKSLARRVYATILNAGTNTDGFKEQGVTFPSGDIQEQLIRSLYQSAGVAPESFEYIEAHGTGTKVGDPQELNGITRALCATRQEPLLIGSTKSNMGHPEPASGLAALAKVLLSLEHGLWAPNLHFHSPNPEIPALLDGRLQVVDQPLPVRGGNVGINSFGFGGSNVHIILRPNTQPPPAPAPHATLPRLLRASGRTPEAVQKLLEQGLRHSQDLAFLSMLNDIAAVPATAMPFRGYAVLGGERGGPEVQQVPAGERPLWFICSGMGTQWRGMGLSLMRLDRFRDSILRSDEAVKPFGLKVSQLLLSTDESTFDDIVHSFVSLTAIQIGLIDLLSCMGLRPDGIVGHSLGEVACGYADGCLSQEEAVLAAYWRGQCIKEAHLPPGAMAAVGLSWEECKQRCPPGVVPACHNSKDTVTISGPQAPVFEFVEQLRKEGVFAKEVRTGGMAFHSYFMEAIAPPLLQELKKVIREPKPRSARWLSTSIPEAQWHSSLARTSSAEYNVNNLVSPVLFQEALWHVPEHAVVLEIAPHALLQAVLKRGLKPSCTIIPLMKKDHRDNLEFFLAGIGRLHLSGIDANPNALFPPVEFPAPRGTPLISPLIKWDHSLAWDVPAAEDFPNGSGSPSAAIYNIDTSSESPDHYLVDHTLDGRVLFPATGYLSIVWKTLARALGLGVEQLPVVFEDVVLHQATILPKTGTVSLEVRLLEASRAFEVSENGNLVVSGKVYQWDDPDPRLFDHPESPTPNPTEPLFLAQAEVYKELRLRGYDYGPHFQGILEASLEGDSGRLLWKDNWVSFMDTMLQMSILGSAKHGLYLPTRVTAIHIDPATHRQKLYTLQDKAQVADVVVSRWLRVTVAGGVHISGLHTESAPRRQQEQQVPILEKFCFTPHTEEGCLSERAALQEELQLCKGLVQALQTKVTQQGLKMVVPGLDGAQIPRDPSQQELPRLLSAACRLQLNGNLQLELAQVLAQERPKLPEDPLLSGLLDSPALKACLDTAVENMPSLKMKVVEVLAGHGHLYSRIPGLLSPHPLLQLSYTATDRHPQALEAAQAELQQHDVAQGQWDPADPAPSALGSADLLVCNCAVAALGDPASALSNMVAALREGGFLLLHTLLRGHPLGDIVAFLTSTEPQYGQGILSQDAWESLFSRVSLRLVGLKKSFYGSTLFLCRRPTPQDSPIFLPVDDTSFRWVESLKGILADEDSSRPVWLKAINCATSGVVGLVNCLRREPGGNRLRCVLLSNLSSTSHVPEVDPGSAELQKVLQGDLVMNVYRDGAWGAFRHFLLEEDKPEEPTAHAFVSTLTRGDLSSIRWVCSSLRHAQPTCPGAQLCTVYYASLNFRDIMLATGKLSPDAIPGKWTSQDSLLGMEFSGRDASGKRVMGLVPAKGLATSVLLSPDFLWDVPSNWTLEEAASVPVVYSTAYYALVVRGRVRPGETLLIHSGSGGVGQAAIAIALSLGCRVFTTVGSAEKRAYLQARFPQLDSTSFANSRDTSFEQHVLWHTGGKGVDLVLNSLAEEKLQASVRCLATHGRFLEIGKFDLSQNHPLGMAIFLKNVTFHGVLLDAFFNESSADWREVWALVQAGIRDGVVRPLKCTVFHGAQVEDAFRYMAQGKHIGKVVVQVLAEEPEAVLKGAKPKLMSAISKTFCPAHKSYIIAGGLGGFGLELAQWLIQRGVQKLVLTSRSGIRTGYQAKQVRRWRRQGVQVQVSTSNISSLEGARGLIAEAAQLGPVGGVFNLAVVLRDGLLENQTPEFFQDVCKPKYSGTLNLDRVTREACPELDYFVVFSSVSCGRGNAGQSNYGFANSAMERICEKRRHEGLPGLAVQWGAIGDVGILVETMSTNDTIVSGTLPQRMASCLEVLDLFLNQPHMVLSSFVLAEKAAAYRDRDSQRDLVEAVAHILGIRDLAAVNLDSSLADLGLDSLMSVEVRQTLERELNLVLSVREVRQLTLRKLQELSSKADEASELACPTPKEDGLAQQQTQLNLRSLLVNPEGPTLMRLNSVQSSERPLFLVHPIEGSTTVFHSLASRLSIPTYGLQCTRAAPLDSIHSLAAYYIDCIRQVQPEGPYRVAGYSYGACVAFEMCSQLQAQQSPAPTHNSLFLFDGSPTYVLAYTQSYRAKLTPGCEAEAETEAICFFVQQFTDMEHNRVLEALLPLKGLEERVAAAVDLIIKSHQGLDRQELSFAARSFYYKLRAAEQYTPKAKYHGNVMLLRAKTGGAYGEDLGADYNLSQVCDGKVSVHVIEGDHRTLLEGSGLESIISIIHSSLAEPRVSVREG
Assay: inhibition of human FAS-TE enzyme activity – biochemical, endpoint fluorescence intensity, uHTS hits, dose response (AID 624327);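 further: fluorescence from hydrolysis of an O-methyl fluorescein acyl ester substrate by the enzyme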
Format: functional
Calls of active or inactive are those of the source.

Solved cases below.
O=C1CC(N2CCN(c3ccc(S(=O)(=O)N4CCOCC4)cc3)CC2)C(=O)N1Cc1ccccc1 (configuration not stated) = 8.79 µM (active)
CCOc1ccccc1NC(=O)c1nc(S(=O)(=O)Cc2cccc(C)c2)ncc1Cl = 11.5 µM (active)
O=[N+]([O-])c1ccc(Sc2nc3ccccc3o2)c([N+](=O)[O-])c1 = 15.8 µM (active)
CCn1cc(C(=O)NCc2ccco2)c(=O)c2cc(S(=O)(=O)N3CCCCCC3)ccc21 = 2.96 µM (active)
O=C(CC1C[C@H](C(=O)N2CCOCC2)[C@@]2(CCC3CCCC3)c3[nH]c4ccccc4c3CCN2C1=O)NCCCn1ccnc1 (some centres not stated) = 4.37 µM (active)

Short answer please: IC50, Fatty acid synthase (Homo sapiens, UniProt P49327), entry COc1cccc(NC(=O)CN2C(=O)COc3ccc(S(=O)(=O)N4CCC(C)CC4)cc32)c1 7.97 µM (active)

Give Fatty acid synthase (Homo sapiens, UniProt P49327) IC50 for COc1ccc(CC(=N)NOC(=O)c2cccc([N+](=O)[O-])c2)cc1 18.3 µM (active)

* * *

Target: Ubiquitin-conjugating enzyme E2 N (Homo sapiens)
Sequence (P61088 whole entry): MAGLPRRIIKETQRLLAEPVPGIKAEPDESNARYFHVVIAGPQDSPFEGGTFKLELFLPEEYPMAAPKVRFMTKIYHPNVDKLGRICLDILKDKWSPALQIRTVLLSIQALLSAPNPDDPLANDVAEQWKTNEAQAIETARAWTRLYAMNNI
Assay type: functional
Calls of active or inactive are those of the source.
Write down one outcome, taken from true = active, false = inactive

C#CCOCCOCCOCCNc1nc(N2CCN(C(=O)CCCCCCCCCCNC(=O)[C@H](CCCCN)n3cc(C)nn3)CC2)nc(N2CCN(C(=O)CCCCCCCCCCNC(=O)[C@@H]([C@H](C)O)n3cc(C)nn3)CC2)n1 = true
C#CCOCCOCCOCCNc1nc(N2CCN(C(=O)CCCCCCCCCCNC(=O)[C@@H](CCSC)n3cc(CCO)nn3)CC2)nc(N2CCN(C(=O)CCCCCCCCCCNC(=O)[C@H]([C@@H](C)CC)n3cc(CCCCN=C(N)N)nn3)CC2)n1 = true
Cc1ccc(CN2CCC(CNC(=O)c3ccc(NC(=O)C4=CSCCO4)cc3)CC2)cc1 = false

Now let's try a different one.
Dear colleague, could you share the recorded outcome for C#CCOCCOCCOCCNc1nc(N2CCN(C(=O)CCCCCCCCCCNC(=O)[C@H](CO)n3cc(CCCSC)nn3)CC2)nc(N2CCN(C(=O)CCCCCCCCCCNC(=O)[C@H](CCCN=C(N)N)n3cc(C[C@@H](C)CC)nn3)CC2)n1 when you have a moment? true

* * *

Molecular target: Replicative DNA helicase DnaB (Mycobacterium tuberculosis, UniProt P9WMR3)
Sequence (P9WMR3 1-399, added parts left off): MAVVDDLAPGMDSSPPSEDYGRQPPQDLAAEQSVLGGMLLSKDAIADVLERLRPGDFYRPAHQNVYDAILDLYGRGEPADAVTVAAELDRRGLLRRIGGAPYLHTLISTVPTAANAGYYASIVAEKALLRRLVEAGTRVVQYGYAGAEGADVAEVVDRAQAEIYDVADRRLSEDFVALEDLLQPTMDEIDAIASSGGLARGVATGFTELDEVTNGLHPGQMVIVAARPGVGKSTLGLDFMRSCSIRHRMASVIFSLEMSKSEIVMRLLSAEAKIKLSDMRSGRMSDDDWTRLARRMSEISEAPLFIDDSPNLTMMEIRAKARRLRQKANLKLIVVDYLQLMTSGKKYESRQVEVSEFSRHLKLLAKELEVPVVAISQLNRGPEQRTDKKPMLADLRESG
Assay: DnaB intein splicing inhibitors, dose response, biochemical, cell-free fluorescence (AID 449749)
Format: functional
Calls of active or inactive are those of the source.
Here the recorded AC50 is given for each entry.

OCCN(CCO)c1ccc(C(c2ccccc2Cl)c2ccc(N(CCO)CCO)cc2Cl)c(Cl)c1 = 1.91 µM (active)
Cc1ccc(C2C(C#N)=C(N)Oc3[nH]nc(-c4ccccc4)c32)o1 (stereo not given) = 4.75 µM (active)

Form field - read-out: AC50; system: Replicative DNA helicase DnaB (Mycobacterium tuberculosis, UniProt P9WMR3); submitted item: O=C(C/C=N\OCc1c(Cl)cccc1Cl)Oc1ccc(Cl)cc1Cl 21.8 µM (active)

Param readout= AC50; system= Replicative DNA helicase DnaB (Mycobacterium tuberculosis, UniProt P9WMR3); entry= O=[N+]([O-])c1ccc(Sc2nc3ccccc3o2)c([N+](=O)[O-])c1 ; returns value. 2.05 µM (active)

Quick check: AC50 on Replicative DNA helicase DnaB (Mycobacterium tuberculosis, UniProt P9WMR3), item Cc1ccc(NC2=C(N3CCCCC3)C(=O)c3ccccc3C2=O)cc1 ? 7.31 µM (active)
